test: decreased DLD-1 cellular survival, CellTiter-Glo luminescent readout, NPC compound collection, primary HTS (AID 1117346)
test.context: DLD-1 viability, CellTiter-Glo luminescence; at 20 µM (top of the series)
observed.property: viability decrease (inhibition) (%)
Could you give me the number in %? Just the number is fine.

Worked examples follow.
{"compound": "Cc1ccc(O)c([C@H](CCN(C(C)C)C(C)C)c2ccccc2)c1", "unit.spec": "%", "viability decrease (inhibition)": -2.4}
{"compound": "COC(=O)Nc1nc2ccc(C(=O)C3CC3)cc2[nH]1", "unit.spec": "%", "viability decrease (inhibition)": 51.6}
{"compound": "Cc1ccc(/C=N/n2c(-c3ccccc3)csc2=S)cc1", "unit.spec": "%", "viability decrease (inhibition)": 37.1}
{"compound": "O=C1N=C(O)CN1/N=C/c1ccc(-c2ccc([N+](=O)[O-])cc2)o1", "unit.spec": "%", "viability decrease (inhibition)": 5}
{"compound": "c1ccc2c(CC3=NCCN3)cccc2c1", "unit.spec": "%", "viability decrease (inhibition)": 8}

Quick note, viability decrease (inhibition) for `Nc1c(N=Nc2ccc(-c3ccc(N=Nc4cc(S(=O)(=O)O)c5ccccc5c4N)cc3)cc2)cc(S(=O)(=O)O)c2ccccc12` landed at -66.6

The reported value for CC1(C)S[C@@H]2[C@H](NC(=O)C(C(=O)Oc3ccc4c(c3)CCC4)c3ccccc3)C(=O)N2[C@H]1C(=O)O (some centres not stated) in terms of viability decrease (inhibition) is -6.9

Data point: `CC(=O)SC[C@@H](Cc1ccccc1)C(=O)NCC(=O)OCc1ccccc1` ; viability decrease (inhibition) = -5.9

For this compound ( COc1ccc(OC)c(C(O)CNC(=O)CN)c1 (configuration not stated) ), measured viability decrease (inhibition) is 0.7

Sure, the documented viability decrease (inhibition) for CCCCCCCCCCCCCCCCCC(=O)OCC(O)CO (configuration not stated) is -7.2

Entry `NCC(=O)O` , viability decrease (inhibition) reported as 7.4

get_value(item= `CS(=O)(=O)OCCCCOS(C)(=O)=O` , readout=viability decrease (inhibition)) returns -11

###

Reported viability decrease (inhibition) values for the following compounds.
test: decreased DLD-1 cellular survival, CellTiter-Glo luminescent readout, NPC compound collection, primary HTS (AID 1117346)
test.context: DLD-1 viability, CellTiter-Glo luminescence; at 20 µM (top of the series)
# number only, unit % dropped from output

{"compound": "CC(C)c1cc2c(cc1S(=O)(=O)O)[C@@]1(C)CCC[C@@](C)(C(=O)O)[C@@H]1CC2", "unit.spec": "%", "observed.measurement": 11.9}
{"compound": "NCCNc1cccc2ccccc12", "unit.spec": "%", "observed.measurement": 7.9}

Query `CC(C)CCC[C@@H](C)[C@H]1CC[C@H]2[C@@H]3CC[C@H]4C[C@@H](O)CC[C@]4(C)[C@@H]3CC[C@]12C` yields viability decrease (inhibition) of -8.7

`O=S(=O)(O)c1ccc2c(N=Nc3ccc(S(=O)(=O)O)c4ccccc34)c(O)c(S(=O)(=O)O)cc2c1` yielded viability decrease (inhibition) of 6.8

Record summary for c1ccc(-c2ccc(C(c3ccccc3)n3ccnc3)cc2)cc1 (stereo not drawn) : reported viability decrease (inhibition) = 104

Just so you know, measured viability decrease (inhibition) for CC(C)(C)NCC(O)COc1cccc2c1C[C@H](O)[C@H](O)C2 (stereo partly drawn) came out at -5.7

For reference, reported viability decrease (inhibition) for `CN(C)CCOc1ccccc1Cc1ccccc1` stands at 0.8

viability decrease (inhibition) in this record for `C[C@H]1O[C@@H](O[C@H]2CC[C@@]3(C)[C@H](CC[C@@H]4[C@@H]3C[C@@H](O)[C@]3(C)[C@@H](C5=CC(=O)OC5)CC[C@]43O)C2)C[C@H](O)[C@@H]1O[C@H]1C[C@H](O)[C@H](O[C@H]2C[C@H](O)[C@H](O[C@@H]3O[C@H](CO)[C@@H](O)[C@H](O)[C@H]3O)[C@@H](C)O2)[C@@H](C)O1` : 79.5

###

Each entry below carries its reported nuclear beta-catenin stimulation.
test: stimulators of nuclear beta-catenin in C2C12, primary screen, imaging, WNT3A-conditioned medium, mouse C2C12, NPC library (AID 1117326); also: reference of the scale not given here
test.context: at 10 µM, stronger effect = higher value
Respond with the bare value in %.

Some molecules with known nuclear beta-catenin stimulation results, for comparison:
{"molecule": "CCOC(=O)[C@H](CCc1ccccc1)N[C@H]1CCc2ccccc2N(CC(=O)O)C1=O", "unit.spec": "%", "nuclear beta-catenin stimulation": 27.7}
{"molecule": "c1ccc(CC2=NCCN2)cc1", "unit.spec": "%", "nuclear beta-catenin stimulation": 0.4}
{"molecule": "CC(C)=CCC1C(=O)N(c2ccccc2)N(c2ccccc2)C1=O", "unit.spec": "%", "nuclear beta-catenin stimulation": -0.3}
{"molecule": "COc1ccc(CC2c3cc(OC)c(OC)cc3CCN2CCC(=O)OCCCCCOC(=O)CCN2CCc3cc(OC)c(OC)cc3C2Cc2ccc(OC)c(OC)c2)cc1OC (stereo not given)", "unit.spec": "%", "nuclear beta-catenin stimulation": -1.1}

Input `CCc1nnc(NS(=O)(=O)c2ccc(N)cc2)s1` . Output nuclear beta-catenin stimulation: -0.1

###

Tested on: F380Y/beta2Delta
test: modulators of BK channel variants, profiling panel, selectivity assay, cell-based, U2OS BacMam, thallium flux, beta subunits (AID 1259406);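 also: initial slope of Thallos dye fluorescence rise after thallium is added; log ratio against the mean of 0.3% DMSO vehicle wells on the same plate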
test.context: at 30 µM
observed.property: log fold change Tl+ flux
// print number alone

{"compound": "CCCNC(=O)NS(=O)(=O)c1ccc(Cl)cc1", "subject.of.test": "F380Y/beta2Delta", "log fold change Tl+ flux": -0.00553}
{"compound": "CC(C)C(=O)Nc1ccc([N+](=O)[O-])c(C(F)(F)F)c1", "subject.of.test": "F380Y/beta2Delta", "log fold change Tl+ flux": -0.0159}
{"compound": "CC(N=C(NC#N)Nc1ccncc1)C(C)(C)C (configuration not stated)", "subject.of.test": "F380Y/beta2Delta", "log fold change Tl+ flux": 0.0089}
{"compound": "C[C@H](CS)C(=O)N1CCC[C@H]1C(=O)O", "subject.of.test": "F380Y/beta2Delta", "log fold change Tl+ flux": 0.00669}
{"compound": "CCn1cc(C(=O)O)c(=O)c2cc(F)c(N3CCN(C)CC3)cc21", "subject.of.test": "F380Y/beta2Delta", "log fold change Tl+ flux": -0.0112}
{"compound": "CCN(CC)C(=S)SSC(=S)N(CC)CC", "subject.of.test": "F380Y/beta2Delta", "log fold change Tl+ flux": 0.0251}
{"compound": "CC1=C(CC(=O)O)c2cc(F)ccc2/C1=C\\c1ccc(S(C)=O)cc1 (configuration not stated)", "subject.of.test": "F380Y/beta2Delta", "log fold change Tl+ flux": 0.0561}
{"compound": "COc1ccc(OC)c(C(O)CNC(=O)CN)c1 (configuration not stated)", "subject.of.test": "F380Y/beta2Delta", "log fold change Tl+ flux": -0.0267}

The reported log fold change Tl+ flux of the compound c1ccc2c(c1)CCCC2C1=NCCN1 (configuration not stated) was -0.0151

Please fill in: log fold change Tl+ flux reported for `CN(C)CCCN1c2ccccc2CCc2ccc(Cl)cc21` = -0.0656

###

test: modulators of glucocorticoid suppression of NF-kB, cell-based, luciferase, IL-1B stimulus, dexamethasone (AID 624486)
test.context: NF-kB luciferase reporter, IL-1B + dexamethasone, luminescence; measured here: IL-1B alone, no Dex
observed.property: z-score
Could you keep your reply to the number by itself?

{"smi": "c1ccc(Oc2ccc(Nc3ncc(-c4ccccc4)o3)cc2)cc1", "z-score": 1.91}
{"smi": "O=C1N=c2ccc(N=Cc3c(O)[nH]c4ccccc34)cc2=N1", "z-score": -0.205}
{"smi": "Cc1ccc2[nH]c(O)c(N=Nc3ccc(S(N)(=O)=O)cc3)c2c1", "z-score": 0.885}
{"smi": "CCc1cccc(CC)c1/C=C/c1cncc(C(=O)NC)c1", "z-score": -0.295}

Please examine the following record next.
The molecule identified as `O=C(O[C@H]1CN[C@H](C#Cc2cc3ncnc(Nc4ccc5c(ccn5Cc5cc(F)ccc5F)c4)c3s2)C1)N1CCOCC1` registered its z-score at -2.06

###

test: growth inhibition of DIPG glioma cells, dose response, cell-based, SU-DIPG-XVII, MIPE5.0, CellTiter-Glo, qHTS (AID 1347060);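 as to AC50: cells exposed to compound for 48 hours before viability readout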
test.context: SU-DIPG-XVII viability, CellTiter-Glo ATP luminescence
Inconclusive results are not listed. Activity calls are given as the source filed them. No cut-off is given here; in the data, nearly all actives have AC50 up to about 26 µM.
observed.property: AC50

{"compound": "C[C@H]1C[C@@H]2[C@H]([C@@H](O)C[C@@]3(C)[C@H]2CC[C@]3(O)C(=O)CO)[C@@]2(C)C=CC(=O)C=C12", "observed.property": "AC50", "observed.measurement": "inactive"}
{"compound": "CCC1(c2ccccc2)C(=O)NCNC1=O", "observed.property": "AC50", "observed.measurement": "inactive"}
{"compound": "CCCc1nc2c(C)cc(-c3nc4ccccc4n3C)cc2n1Cc1ccc(-c2ccccc2C(=O)O)cc1", "observed.property": "AC50", "observed.measurement": "inactive"}
{"compound": "CCc1cc(C(N)=S)ccn1", "observed.property": "AC50", "observed.measurement": "inactive"}
{"compound": "CC[C@H]1CN2CCc3cc(OC)c(OC)cc3[C@@H]2C[C@@H]1C[C@H]1NCCc2cc(OC)c(OC)cc21", "observed.property": "AC50", "observed.measurement": "0.263 µM (active)"}
{"compound": "O=S(=O)(O)CCS", "observed.property": "AC50", "observed.measurement": "inactive"}
{"compound": "NS(=O)(=O)c1cc2c(cc1Cl)NCNS2(=O)=O", "observed.property": "AC50", "observed.measurement": "inactive"}
{"compound": "CC(=O)CC(c1ccccc1)c1c(O)c2ccccc2oc1=O (stereo not drawn)", "observed.property": "AC50", "observed.measurement": "inactive"}

So for O=C(C1CCCCC1)N1CC(=O)N2CCc3ccccc3C2C1 (stereo not drawn) , the logged AC50 turned out to be 26.3 µM (active)

So, `C#C[C@]1(O)CC[C@H]2[C@@H]3CCC4=CC(=O)CC[C@@H]4[C@H]3CC[C@@]21CC` ? Its AC50 was inactive

Reported AC50 ( `NS(=O)(=O)c1cc2c(cc1Cl)NC=NS2(=O)=O` ) = inactive

Lab note: measured AC50 of `CCCCc1oc2ccccc2c1C(=O)c1cc(I)c(OCCN(CC)CC)c(I)c1` was 13.2 µM (active)

Looking up `Oc1c(Cl)cc(Cl)c2cccnc12` , I see its AC50 listed as 16.6 µM (active)

Value of measured AC50 for the entry `CC1(C)O[C@@H]2C[C@H]3[C@@H]4C[C@H](F)C5=CC(=O)C=C[C@]5(C)[C@H]4[C@@H](O)C[C@]3(C)[C@]2(C(=O)CO)O1` : inactive
